Molecular target: T1, E. coli β clamp (β subunit of DNA polymerase III, dnaN gene product) (E. coli, UniProt P0A988 1-366)
T1 construct: Homodimeric ring; N-tagged protein expressed in BL21 E. coli and purified on Ni-NTA and MonoQ; also called β ring; β protein; not shown: N-terminal tag from the pET15b plasmid
T1 sequence (P0A988 whole entry): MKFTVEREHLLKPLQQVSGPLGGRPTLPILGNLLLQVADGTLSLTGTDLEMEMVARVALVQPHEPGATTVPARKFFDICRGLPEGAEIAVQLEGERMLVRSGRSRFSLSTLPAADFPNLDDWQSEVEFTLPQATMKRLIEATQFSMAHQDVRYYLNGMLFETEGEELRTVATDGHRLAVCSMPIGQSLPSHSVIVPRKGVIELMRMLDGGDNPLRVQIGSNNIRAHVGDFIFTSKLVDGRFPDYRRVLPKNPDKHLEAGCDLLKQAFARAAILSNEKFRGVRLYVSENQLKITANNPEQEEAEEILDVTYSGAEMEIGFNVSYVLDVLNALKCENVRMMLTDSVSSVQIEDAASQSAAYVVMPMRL
Test: SPR competition; ΔG = -RT ln Ki
Square brackets hold non-standard residues; d marks the D form. Phe(4-Me) = Cc1ccc(C[C@H](N)C(=O)O)cc1; Cha = N[C@@H](CC1CCCCC1)C(=O)O
QUANTITY NAME: ΔG (kcal/mol)
Numeric only. Scale: kcal/mol

BINDER | QUANTITY NAME | VALUE
Ac-QLDLF-OH (also called AcQLDLF) [P6, Ac-Gln-Leu-Asp-Leu-Phe-OH] | ΔG | -8.22
Ac-Q[Cha]DL[Phe(4-Me)]-OH (SMILES CC(=O)N[C@@H](CCC(N)=O)C(=O)N[C@@H](CC1CCCCC1)C(=O)N[C@@H](CC(=O)O)C(=O)N[C@@H](CC(C)C)C(=O)N[C@@H](Cc1ccc(C)cc1)C(=O)O, X stands for Cha; the substituted phenylalanine is written F; also called Ac-Q Cha DL pMeF) [P11, Ac-Gln-Cha-Asp-Leu-pMePhe-OH] | ΔG | -9.44

--- query ---
Exercise: Consider the binder H-RQLVLGL-OH (also called RQLVLGL; natural Cter heptamer of E. coli DNA polymerase IV) [P1, H-Arg-Gln-Leu-Val-Leu-Gly-Leu-OH] and give its measured ΔG.
Key: -7.06
